target: Fatty-acid amide hydrolase 1 (Rattus norvegicus); assay: Tested for hydrolysis by rat brain microsomal anandamide amidohydrolase (AAH).
Group membership follows Rate of hydrolysis (nM min-1 mg-1) per the scheme low: < 0.03; intermediate: ≥ 0.03 and < 0.3; high: ≥ 0.3

Study these solved cases before continuing.
- COMPOUND_STRUCTURE: "CCCCC/C=C\\C/C=C\\C/C=C\\C/C=C\\CCCC(=O)Nc1ccc(CO)cc1"
  TARGET_OR_SYSTEM: "Fatty-acid amide hydrolase 1 (Rattus norvegicus)"
  ASSIGNED_CATEGORY: "low"
- COMPOUND_STRUCTURE: "CCCCC/C=C\\C/C=C\\C/C=C\\C/C=C\\CCCC(=O)NC(C)(C)CO"
  TARGET_OR_SYSTEM: "Fatty-acid amide hydrolase 1 (Rattus norvegicus)"
  ASSIGNED_CATEGORY: "intermediate"

Assign a category based on measured Rate of hydrolysis (nM min-1 mg-1) for `CCCCC/C=C\C/C=C\C/C=C\C/C=C\CCCC(N)=O` and give only the class name.
high

The measured values listed here are drawn from ChEMBL document CHEMBL1132600.
